Value source: the supplement of paper PMC12636033

# System: 2Sp-muMax20 (muMax20 with two 2,6-bis(methyl)pyridine Cys staples)
# assay-overview: PBM 8-mer E-score (E-score (rank enrichment, -0.5 to 0.5)); higher = stronger preferential binding
Whole data set: some 33,000 sequences, median “E-score (rank enrichment, -0.5 to 0.5)” near -0.0043, cut for the highest 2% near 0.24. The sample as a whole holds a higher share of the highest values than the screen did.
Values of PBM 8-mer E-score greater than or equal to 0.05 map to T; values below map to F.

Previously resolved entries follow.
Does PBM 8-mer E-score meet or surpass 0.05 for GACTTTGA ? T

Given the entry AACTTTAA , answer whether its PBM 8-mer E-score meets or surpasses 0.05. T

Could you please find out whether ACACCATC has PBM 8-mer E-score that meets 0.05 or exceeds it? T

Answer whether PBM 8-mer E-score of CCGTGGGC is greater than or equal to 0.05. F

Hello, I need to know if AATATCAC has measured PBM 8-mer E-score not below 0.05. Thanks! T

Evaluate AGCGGATC : PBM 8-mer E-score at minimum 0.05? F

Could you please find out whether CAGTCTCA has PBM 8-mer E-score that meets 0.05 or exceeds it? F

# bool: PBM 8-mer E-score of TCCGATAA >= 0.05 F

***
Identify whether the reported PBM 8-mer E-score of the following sequence is 0.05 or greater: GTGACTAA T

Check the entry GAACAAAC : does PBM 8-mer E-score equal or exceed 0.05? F
